assayExplanation: Metabolic stability in human liver microsomes
Type: in vitro ADME
settings: human liver microsomes 0.5 mg/ml, 1 μM compound, NADPH; read-out: HLM t1/2
Item-by-item account of half-life at 1 μM
Please respond with the number in min and leave the unit unwritten.

Answered cases to consult:
Lookup: Complete the entry with half-life at 1 μM for Cc1ccc(-n2nc(C(=O)N3C[C@@H](C)N[C@@H](C)C3)nc2-c2ccc3c(c2)N(C2CCCC2)[C@H](C)C(=O)N3C)cc1
Found: 27

Lookup: Complete the entry with half-life at 1 μM for Cc1ccc(-n2nc(C(=O)N3CCN(C)CC3)cc2-c2ccc3c(c2)N(C2CCCC2)[C@H](C)C(=O)N3C)cc1
Found: 21

Lookup: Complete the entry with half-life at 1 μM for C[C@@H]1C(=O)N(C)c2ccc(-c3nc(C(=O)N4CCCN(C)CC4)nn3-c3ccccc3)cc2N1C1CCCC1
Found: 23.9

Shifting focus to the compound that follows.
Lookup: Complete the entry with half-life at 1 μM for Cc1ccc(-n2nc(C(=O)N3C[C@@H](C)N[C@@H](C)C3)cc2-c2ccc3c(c2)N(C2CCCC2)[C@H](C)C(=O)N3C)cc1
Found: 25

###

Item-by-item account of pIC50
studySystem: UniProt O60885
// returns pIC50 (minus log10 of molar concentration), number only

Answered cases to consult:
Lookup: Complete the entry with pIC50 for Cc1ccc(-n2nc(C(=O)N3CCN(C)CC3)nc2-c2ccc3c(c2)N(C2CCCC2)[C@H](C)C(=O)N3C)cc1F
Found: 8.39

Lookup: Complete the entry with pIC50 for Cc1ccc(-n2nc(C(=O)N3C[C@@H](C)N[C@@H](C)C3)nc2-c2ccc3c(c2)N(C(C)C)[C@H](C)C(=O)N3C)cc1
Found: 7.82

Lookup: Complete the entry with pIC50 for Cc1ccc(-n2nc(C(=O)N3CCN(C)CC3)cc2-c2ccc3c(c2)N(C2CCCC2)[C@H](C)C(=O)N3C)cc1
Found: 8.29

New cases:
Lookup: Complete the entry with pIC50 for Cc1ccc(-n2nc(C(=O)N3C[C@@H](N)C4(CC4)C3)nc2-c2ccc3c(c2)N(C2CCCC2)[C@H](C)C(=O)N3C)cc1
Found: 8.28

Lookup: Complete the entry with pIC50 for Cc1ccc(-n2nc(C(=O)N3C[C@@H](C)N[C@@H](C)C3)nc2-c2ccc3c(c2)N(C2CCC(F)(F)CC2)[C@H](C)C(=O)N3C)cc1
Found: 7.80

Lookup: Complete the entry with pIC50 for Cc1ccc(-n2nc(C(=O)N3CCC4(CCOC4)CC3)nc2-c2ccc3c(c2)N(C2CCCC2)[C@H](C)C(=O)N3C)cc1
Found: 8.15

Lookup: Complete the entry with pIC50 for Cc1ccc(-n2nc(C(=O)N3C4CCC3CN(C)C4)nc2-c2ccc3c(c2)N(C2CCCC2)[C@H](C)C(=O)N3C)cc1
Found: 8.19

###

studySystem: BRD4 (I) (Homo sapiens (Human), UniProt O60885)
assayExplanation: Fluorescence anisotropy (FA) binding test on BRD4 (I)
settings: BRD4 (I) 10 nM, fluorescent (+)-JQ1 substrate 5 nM, read-out: BRD4 (1) IC50
propertyLabel: IC50

Answered cases to consult:
Lookup: Complete the entry with IC50 for Cc1ccc(-n2nc(C(=O)N3C[C@@H](NC(=O)OC(C)(C)C)C4(CC4)C3)nc2-c2ccc3c(c2)N(C2CCCC2)[C@H](C)C(=O)N3C)cc1 [Example 23]
Found: 9.2 nM

Lookup: Complete the entry with IC50 for Cc1ccc(-n2nc(C(=O)N3C[C@@H](C)N[C@@H](C)C3)nc2-c2ccc3c(c2)N(C2COC2)[C@H](C)C(=O)N3C)cc1 [Example 38]
Found: 13.6 nM

Lookup: Complete the entry with IC50 for Cc1ccc(-n2nc(C(=O)N3CCN(C4CC4)CC3)nc2-c2ccc3c(c2)N(C2CCCC2)[C@H](C)C(=O)N3C)cc1 [Example 11]
Found: 5.08 nM

Lookup: Complete the entry with IC50 for Cc1ccc(-n2nc(C(=O)N3C[C@@H](C)N[C@@H](C)C3)nc2-c2ccc3c(c2)N(C2CC(F)(F)C2)[C@H](C)C(=O)N3C)cc1 [Example 41]
Found: 20.1 nM

Lookup: Complete the entry with IC50 for Cc1ccc(-n2nc(C(=O)N3C[C@@H](C)N[C@@H](C)C3)nc2-c2ccc3c(c2)N(C2CC2)C(C)C(=O)N3C)cc1 (some centres unmarked) [Example 36]
Found: 18.5 nM

Lookup: Complete the entry with IC50 for Cc1ccc(-n2nc(C(=O)N3C[C@@H](C)N[C@@H](C)C3)nc2-c2ccc3c(c2)N(C2CCCC2)[C@H](C)C(=O)N3C)cc1 [Example 12]
Found: 4.9 nM

Lookup: Complete the entry with IC50 for Cc1ccc(-n2nnnc2-c2ccc3c(c2)N(C2CCCC2)C(C)C(=O)N3C)cc1 (centres unmarked) [Example 4]
Found: 18.4 nM

Shifting focus to the compound that follows.
Lookup: Complete the entry with IC50 for Cc1ccc(-n2nc(CN3C[C@@H](C)N[C@@H](C)C3)nc2-c2ccc3c(c2)N(C2CCCC2)[C@H](C)C(=O)N3C)cc1 [Example 47]
Found: 6.7 nM
